Assay: Binding affinity to HIV1 capsid protein monomer assessed as dissociation constant by SPR analysis
Parameters: species or system Human immunodeficiency virus 1
READOUT LABEL: Kd (µM)
Number in µM, nothing else.

COc1ccc(N(C)C(=O)CS(=O)(=O)N[C@@H](Cc2ccccc2)C(=O)N(C)c2ccc(OC)cc2)cc1
15.8

Okay, now this compound:
Noted for COc1ccc(N(C)C(=O)[C@H](Cc2ccccc2)NC(=O)c2cccc(S(=O)(=O)N3CCc4cc(N)ccc43)c2)cc1 : its Kd reads 11.6

----------
The compounds listed here are annotated with their selectivity ratio.
Assay: Selectivity index, ratio of CC50 for cytotoxicity against human MT4 cells to EC50 for antiviral activity against HIV1 infected in human MT4 cells
Format: toxicity, cell-based
Conditions: read-out: Ratio CC50/EC50

COc1ccc(N(C)C(=O)[C@H](Cc2ccccc2)NC(=O)c2cccc(S(=O)(=O)N3CCc4cc(N)ccc43)c2)cc1
> 3.33
COc1ccc(N(C)C(=O)[C@H](Cc2ccccc2)NS(=O)(=O)CC(=O)Nc2ccc(C#N)cc2)cc1
> 1.22
COc1ccc(N(C)C(=O)CS(=O)(=O)N[C@@H](Cc2ccccc2)C(=O)N(C)c2ccc(OC)cc2)cc1
> 1.85
COc1ccc(N(C)C(=O)[C@H](Cc2ccccc2)NC(=O)c2cccc(S(=O)(=O)N(C)c3ccc(OC)cc3)c2)cc1
> 1.61

Noted for COc1ccc(N(C)C(=O)[C@H](Cc2ccccc2)NC(=O)c2cccc(S(=O)(=O)N3CCCCC3)c2)cc1 : its selectivity ratio reads > 1.86

Noted for COc1ccc(N(C)C(=O)[C@H](Cc2ccccc2)NC(=O)c2cccc(S(=O)(=O)N3CCSCC3)c2)cc1 : its selectivity ratio reads > 1.84

Noted for COc1ccc(N(C)C(=O)[C@H](Cc2ccccc2)NC(=O)c2cccc(S(=O)(=O)N(C)C)c2)cc1 : its selectivity ratio reads > 1.12

----------
The compounds listed here are annotated with their CC50.
System: MT4
Experiment: Cytotoxicity against human MT4 cells assessed as reduction in cell viability incubated for 3 days by XTT assay
Assay type: cell-based
Conditions: mt4, 72 h, time 3 day

COc1ccc(N(C)C(=O)[C@H](Cc2ccccc2)NS(=O)(=O)c2cccc(C(=O)Nc3ccc4ncsc4c3)c2)cc1
> 8.32 µM
COc1ccc(N(C)C(=O)[C@H](Cc2ccccc2)NS(=O)(=O)c2cccc(C(=O)NC3CC3)c2)cc1
> 9.85 µM
COc1ccc(N(C)C(=O)[C@H](Cc2ccccc2)NC(=O)c2cccc(S(=O)(=O)N3CCc4cc(OC)ccc43)c2)cc1
> 8.34 µM
COc1ccc(N(C)C(=O)C(=O)N[C@@H](Cc2ccccc2)C(=O)N(C)c2ccc(OC)cc2)cc1
> 10.5 µM
COc1ccc(N(C)C(=O)[C@H](Cc2ccccc2)NS(=O)(=O)CC(=O)Nc2ccc(C#N)cc2)cc1
> 9.87 µM

Noted for COc1ccc(N(C)C(=O)[C@H](Cc2ccccc2)NC(=O)c2cccc(NS(=O)(=O)c3ccc(F)cc3)c2)cc1 : its CC50 reads > 8.91 µM

Noted for COc1ccc(N(C)C(=O)[C@H](Cc2ccccc2)NC(=O)c2cccc(S(=O)(=O)Nc3cc(F)cc(F)c3)c2)cc1 : its CC50 reads > 8.63 µM

Noted for COc1ccc(N(C)C(=O)[C@H](Cc2ccccc2)NC(=O)c2cccc(S(=O)(=O)N3CCSCC3)c2)cc1 : its CC50 reads > 9.33 µM

Noted for COc1ccc(N(C)C(=O)[C@H](Cc2ccccc2)NC(=O)c2cccc(S(=O)(=O)N(C)C)c2)cc1 : its CC50 reads > 10.1 µM

Noted for COc1ccc(N(C)C(=O)[C@H](Cc2ccccc2)NS(=O)(=O)CC(=O)n2ncc3ccccc32)cc1 : its CC50 reads > 9.87 µM

Noted for COc1ccc(N(C)C(=O)[C@H](Cc2ccccc2)NC(=O)C(=O)Nc2ccc3ncsc3c2)cc1 : its CC50 reads > 10.2 µM

Noted for COc1ccc(N(C)C(=O)[C@H](Cc2ccccc2)NC(=O)C(=O)N2CCc3cc([N+](=O)[O-])ccc32)cc1 : its CC50 reads > 9.95 µM

Noted for COc1ccc(N(C)C(=O)[C@H](Cc2ccccc2)NC(=O)c2cccc(S(=O)(=O)Nc3ccc(C(F)(F)F)cc3)c2)cc1 : its CC50 reads > 8.17 µM

Noted for COc1ccc(N(C)C(=O)[C@H](Cc2ccccc2)NC(=O)c2cccc(S(=O)(=O)N(C)c3ccc(OC)cc3)c2)cc1 : its CC50 reads > 8.51 µM

Noted for COc1ccc(N(C)C(=O)[C@H](Cc2ccccc2)NS(=O)(=O)CC(=O)Nc2ccc3ncsc3c2)cc1 : its CC50 reads > 9.28 µM

Noted for COc1ccc(N(C)C(=O)[C@H](Cc2ccccc2)NC(=O)c2cccc(S(=O)(=O)N3CCc4ccccc43)c2)cc1 : its CC50 reads > 8.78 µM
